assay: Test Example 1: Solubility in various organic solvents; format: physicochemical; settings: ethanol, organic solvent or mixture, thermodynamic from solid, stirred for 24 hours
outcome_measure: solubility at 24 h (µg/mL)
Could you give me the number in µg/mL? Just the number is fine.

Q: Tell us which solubility at 24 h value is on record for O=C(O)c1cc(C2CC2)cnc1Nc1ccc2c(ccn2Cc2cccc(F)c2)c1 [α-Form crystal]
Ans: 8800

###

assay: Test Example 1: Solubility in various organic solvents; format: physicochemical; details: acetone, organic solvent or mixture, thermodynamic from solid, stirred for 24 hours
outcome_measure: solubility at 24 h (mg/mL)
Could you give me the number in mg/mL? Just the number is fine.

Q: Tell us which solubility at 24 h value is on record for O=C(O)c1cc(C2CC2)cnc1Nc1ccc2c(ccn2Cc2cccc(F)c2)c1 [α-Form crystal]
Ans: 55

###

experiment: Test Example 1: Solubility in various organic solvents; type: physicochemical; details: 2-propanol, organic solvent or mixture, thermodynamic from solid, stirred for 24 hours
outcome_measure: solubility at 24 h (µg/mL)
Could you give me the number in µg/mL? Just the number is fine.

Q: Tell us which solubility at 24 h value is on record for O=C(O)c1cc(C2CC2)cnc1Nc1ccc2c(ccn2Cc2cccc(F)c2)c1 [α-Form crystal]
Ans: 3500

###

assay: Test Example 1: Solubility in various organic solvents; assay type: physicochemical; conditions: methyl tert-butyl ether, organic solvent or mixture, thermodynamic from solid, stirred for 24 hours
outcome_measure: solubility at 24 h (mg/mL)
Could you give me the number in mg/mL? Just the number is fine.

Q: Tell us which solubility at 24 h value is on record for O=C(O)c1cc(C2CC2)cnc1Nc1ccc2c(ccn2Cc2cccc(F)c2)c1 [α-Form crystal]
Ans: 10.1

###

assay: Test Example 1: Solubility in various organic solvents; format: physicochemical; conditions: methyl ethyl ketone, organic solvent or mixture, thermodynamic from solid, stirred for 24 hours
outcome_measure: solubility at 24 h (mg/mL)
Could you give me the number in mg/mL? Just the number is fine.

Q: Tell us which solubility at 24 h value is on record for O=C(O)c1cc(C2CC2)cnc1Nc1ccc2c(ccn2Cc2cccc(F)c2)c1 [α-Form crystal]
Ans: 63.1

Data origin: patent US10174001B2
